// reported IC50 per item
# tested.system: BCRP (Homo sapiens)
# Sequence (Q9UNQ0 whole entry): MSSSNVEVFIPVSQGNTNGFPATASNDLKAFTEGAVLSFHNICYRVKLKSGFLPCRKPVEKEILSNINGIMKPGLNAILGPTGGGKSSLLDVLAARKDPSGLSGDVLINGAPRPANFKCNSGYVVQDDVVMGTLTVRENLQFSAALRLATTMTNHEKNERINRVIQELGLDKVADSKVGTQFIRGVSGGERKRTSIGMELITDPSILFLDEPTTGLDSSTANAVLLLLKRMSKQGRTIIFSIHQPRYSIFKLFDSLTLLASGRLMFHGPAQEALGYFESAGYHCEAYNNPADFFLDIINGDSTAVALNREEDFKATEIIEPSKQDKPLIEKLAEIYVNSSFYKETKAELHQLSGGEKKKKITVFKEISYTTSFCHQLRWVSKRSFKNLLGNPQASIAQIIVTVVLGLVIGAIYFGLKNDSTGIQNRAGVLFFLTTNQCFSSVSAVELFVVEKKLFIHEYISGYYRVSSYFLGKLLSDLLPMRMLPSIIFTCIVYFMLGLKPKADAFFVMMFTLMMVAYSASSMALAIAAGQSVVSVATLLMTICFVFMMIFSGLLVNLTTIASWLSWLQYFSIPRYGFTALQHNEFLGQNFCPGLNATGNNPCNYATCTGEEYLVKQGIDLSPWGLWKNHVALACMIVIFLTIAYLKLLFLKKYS
# test.method.notes: In vitro BCRP inhibition, HEK293-BCRP membrane vesicles, rosuvastatin probe
# Type: biochemical
# experimental.context: read-out: BCRP IC50; membrane vesicles; rosuvastatin 0.2 µM probe
value.type: IC50 (nM)

compound	value.reported
CC[C@H]1OC(=O)[C@H](C)[C@@H](O[C@H]2C[C@@](C)(OC)[C@@H](O)[C@H](C)O2)[C@H](C)[C@@H](O[C@@H]2O[C@H](C)C[C@H](N(C)C)[C@H]2O)[C@](C)(OC)C[C@@H](C)C(=O)[C@H](C)[C@@H](O)[C@]1(C)O	411000
COc1cc(Nc2ncc(F)c(Nc3ccc4c(n3)NC(=O)C(C)(C)O4)n2)cc(OC)c1OC	65
CC(=O)c1cc(C(=O)N[C@@H](C)Cn2ccc(-c3ccc(C#N)c(Cl)c3)n2)[nH]n1 [Keto‐darolutamide]	560
C=C[C@@H]1C[C@]1(NC(=O)[C@@H]1C[C@@H]2CN1C(=O)[C@H](C(C)(C)C)NC(=O)O[C@@H]1C[C@H]1CCCCCc1nc3ccc(OC)cc3nc1O2)C(=O)NS(=O)(=O)C1CC1.O	4030

###

Listing: 1B3 R-Value of selected molecules
# tested.system: OATP1B3 (Homo sapiens, UniProt Q9NPD5)
# Sequence (Q9NPD5 1-702): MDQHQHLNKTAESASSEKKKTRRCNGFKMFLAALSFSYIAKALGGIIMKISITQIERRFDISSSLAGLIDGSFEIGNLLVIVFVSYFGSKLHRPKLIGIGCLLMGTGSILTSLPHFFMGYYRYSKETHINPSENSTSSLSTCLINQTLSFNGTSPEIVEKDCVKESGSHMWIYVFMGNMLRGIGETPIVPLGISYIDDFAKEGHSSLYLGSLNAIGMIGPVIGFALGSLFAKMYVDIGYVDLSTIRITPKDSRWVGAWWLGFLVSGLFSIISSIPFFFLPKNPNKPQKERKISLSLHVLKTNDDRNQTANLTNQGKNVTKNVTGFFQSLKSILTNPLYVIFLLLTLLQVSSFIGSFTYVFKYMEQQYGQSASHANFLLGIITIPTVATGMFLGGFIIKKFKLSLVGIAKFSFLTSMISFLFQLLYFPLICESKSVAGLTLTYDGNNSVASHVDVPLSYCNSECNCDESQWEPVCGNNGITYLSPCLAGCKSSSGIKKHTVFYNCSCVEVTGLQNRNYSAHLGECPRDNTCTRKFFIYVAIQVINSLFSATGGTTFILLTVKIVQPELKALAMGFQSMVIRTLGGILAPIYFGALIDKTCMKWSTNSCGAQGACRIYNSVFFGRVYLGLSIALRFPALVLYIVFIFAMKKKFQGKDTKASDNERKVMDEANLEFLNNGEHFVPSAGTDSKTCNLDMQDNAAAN
# test.method.notes: Static DDI risk assessment, OATP1B3 R-value
# experimental.context: 1 + Iin,max,u/IC50; metabolite/combination additive; Imax,u for IV

molecule	tested.system	1B3 R-Value
CC1=NN(c2ccc(C)c(C)c2)C(=O)/C1=N\Nc1cccc(-c2cccc(C(=O)O)c2)c1O	OATP1B3 (Homo sapiens, UniProt Q9NPD5)	1.10
C=C[C@@H]1C[C@]1(NC(=O)[C@@H]1C[C@@H]2CN1C(=O)[C@H](C(C)(C)C)NC(=O)O[C@@H]1C[C@H]1CCCCCc1nc3ccc(OC)cc3nc1O2)C(=O)NS(=O)(=O)C1CC1.O	OATP1B3 (Homo sapiens, UniProt Q9NPD5)	1.07
CC[C@H]1[C@@H](O)[C@@H]2[C@H](CC[C@]3(C)[C@@H]([C@H](C)CCC(=O)O)CC[C@@H]23)[C@@]2(C)CC[C@@H](O)C[C@@H]12	OATP1B3 (Homo sapiens, UniProt Q9NPD5)	1.02
CNC(=O)c1ccc(-c2cnc3ncc(Cc4ccc5ncccc5c4)n3n2)cc1F	OATP1B3 (Homo sapiens, UniProt Q9NPD5)	1.08
O=C(O)C[C@H]1CC[C@H](c2ccc(-c3ccc(Nc4ccc(C(F)(F)F)nc4)cn3)cc2)CC1	OATP1B3 (Homo sapiens, UniProt Q9NPD5)	1.01
Cc1ccc(C)c(OCCCC(C)(C)C(=O)O)c1	OATP1B3 (Homo sapiens, UniProt Q9NPD5)	1.15
CO[C@H]1/C=C/O[C@@]2(C)Oc3c(C)c(O)c4c(O)c(c(/C=N/N5CCN(C)CC5)c(O)c4c3C2=O)NC(=O)/C(C)=C\C=C\[C@H](C)[C@H](O)[C@@H](C)[C@@H](O)[C@@H](C)[C@H](OC(C)=O)[C@@H]1C	OATP1B3 (Homo sapiens, UniProt Q9NPD5)	4.65
COC(=O)N[C@H](C(=O)N1CCC[C@H]1c1nc(-c2ccc3c(c2)O[C@@H](c2ccccc2)n2c-3cc3cc(-c4c[nH]c([C@@H]5CCCN5C(=O)[C@@H](NC(=O)OC)C(C)C)n4)ccc32)c[nH]1)C(C)C	OATP1B3 (Homo sapiens, UniProt Q9NPD5)	1.00
CCCc1nc2c(C)cc(-c3nc4ccccc4n3C)cc2n1Cc1ccc(-c2ccccc2C(=O)O)cc1	OATP1B3 (Homo sapiens, UniProt Q9NPD5)	1.03
CCC(C)n1ncn(-c2ccc(N3CCN(c4ccc(OCC5COC(Cn6cncn6)(c6ccc(Cl)cc6Cl)O5)cc4)CC3)cc2)c1=O (stereo not drawn)	OATP1B3 (Homo sapiens, UniProt Q9NPD5)	1.00
C[C@H]1CN(C2COC2)CCN1c1ccc(Nc2cc(-c3ccnc(N4CCn5c(cc6c5CC(C)(C)C6)C4=O)c3CO)cn(C)c2=O)nc1	OATP1B3 (Homo sapiens, UniProt Q9NPD5)	3.86
COC[C@H]1C[C@@H](c2ncc(-c3ccc4c(c3)COc3cc5c(ccc6nc([C@@H]7CC[C@H](C)N7C(=O)[C@@H](NC(=O)OC)C(C)C)[nH]c65)cc3-4)[nH]2)N(C(=O)[C@H](NC(=O)OC)c2ccccc2)C1	OATP1B3 (Homo sapiens, UniProt Q9NPD5)	1.02
